- TEST SYSTEM: Adenosine receptor A1 (Rattus norvegicus)
- Sequence (P25099 whole entry): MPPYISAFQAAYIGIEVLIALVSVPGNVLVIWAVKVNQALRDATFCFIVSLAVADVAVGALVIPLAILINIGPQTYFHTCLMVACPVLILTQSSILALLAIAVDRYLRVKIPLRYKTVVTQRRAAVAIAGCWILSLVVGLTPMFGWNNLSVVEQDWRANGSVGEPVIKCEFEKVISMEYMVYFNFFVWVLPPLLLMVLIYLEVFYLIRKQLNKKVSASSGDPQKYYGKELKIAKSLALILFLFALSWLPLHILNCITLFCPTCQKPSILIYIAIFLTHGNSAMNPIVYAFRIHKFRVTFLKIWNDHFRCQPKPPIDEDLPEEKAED
VALUE KIND: pKi
# pKi is unitless: minus log10 of the molar concentration; print number only

Some solved cases for reference:
Find the recorded pKi belonging to CN(C)c1nc(NC(=O)C(c2ccccc2)c2ccccc2)n2nc(-c3ccco3)nc2n1 and report it.
6.02

Find the recorded pKi belonging to CCCCCC(=O)Nc1nc(SC)nc2nc(-c3ccco3)nn12 and report it.
5.82

Find the recorded pKi belonging to CSc1nc(NC(=O)Nc2ccccc2)n2nc(-c3ccco3)nc2n1 and report it.
5.00

Now, please, on to the next molecule.
Find the recorded pKi belonging to Nc1nc(Oc2ccccc2)nc2nc(-c3ccco3)nn12 and report it.
5.57

Entry source: ChEMBL document CHEMBL1156173
